- System: A498
- Assay info: minimum viability across doses, drug + dasatinib, relative to DMSO (fraction); higher = less growth inhibition
- Measurement parameters: treatment: drug + dasatinib (fixed dose, not stated); 5 days
Listing of recorded minimum viability across doses by entry.
Give your answer as a number; write no unit.

Below, each entry is followed by its recorded minimum viability across doses result.
Compound	Measurement target	Observed
O=c1cc(N2CCOCC2)oc2c(-c3ccccc3)cccc12 + Cc1nc(Nc2ncc(C(=O)Nc3c(C)cccc3Cl)s2)cc(N2CCN(CCO)CC2)n1 [dasatinib]	A498	0.656
CS(=O)c1ccc(-c2nc(-c3ccc(F)cc3)c(-c3ccncc3)[nH]2)cc1 (centres undefined) + Cc1nc(Nc2ncc(C(=O)Nc3c(C)cccc3Cl)s2)cc(N2CCN(CCO)CC2)n1 [dasatinib]	A498	0.893

get_value(item= CC(=O)Nc1ccc(NC(=S)NC(=O)c2ccc(C(C)(C)C)cc2)cc1 [Tenovin-1] + Cc1nc(Nc2ncc(C(=O)Nc3c(C)cccc3Cl)s2)cc(N2CCN(CCO)CC2)n1 [dasatinib] , readout=minimum viability across doses) returns 0.0745

get_value(item= FC(F)(F)c1ccc(/C=C/c2nc(COc3ccc(CCCCn4ccnn4)cc3)co2)cc1 [Mubritinib (TAK 165)] + Cc1nc(Nc2ncc(C(=O)Nc3c(C)cccc3Cl)s2)cc(N2CCN(CCO)CC2)n1 [dasatinib] , readout=minimum viability across doses) returns 0.231

get_value(item= Cc1nc(NC(=O)N2CCC[C@H]2C(N)=O)sc1-c1ccnc(C(C)(C)C(F)(F)F)c1 [BYL719] + Cc1nc(Nc2ncc(C(=O)Nc3c(C)cccc3Cl)s2)cc(N2CCN(CCO)CC2)n1 [dasatinib] , readout=minimum viability across doses) returns 0.54

====

- Test system: 786-O
- Assay info: minimum viability across doses, drug + dasatinib, relative to DMSO (fraction); higher = less growth inhibition
- Measurement parameters: treatment: drug + dasatinib (fixed dose, not stated); 5 days
Listing of recorded minimum viability across doses by entry.

Molecule	Measurement target	minimum viability across doses
COC1=CC(c2cc3ccccc3[nH]2)=N/C1=C\c1[nH]c(C)cc1C.CS(=O)(=O)O [Obatoclax mesylate (GX15-070)] + Cc1nc(Nc2ncc(C(=O)Nc3c(C)cccc3Cl)s2)cc(N2CCN(CCO)CC2)n1	786-O	0.00545
COc1cc2nccc(Oc3ccc(NC(=O)NC4CC4)c(Cl)c3)c2cc1C(N)=O [E7080 (Lenvatinib)] + Cc1nc(Nc2ncc(C(=O)Nc3c(C)cccc3Cl)s2)cc(N2CCN(CCO)CC2)n1	786-O	0.674
O=C1NC(=O)[C@@H](c2cn3c4c(cccc24)CCC3)[C@@H]1c1c[nH]c2ccccc12 [ARQ 197 (Tivantinib)] + Cc1nc(Nc2ncc(C(=O)Nc3c(C)cccc3Cl)s2)cc(N2CCN(CCO)CC2)n1	786-O	0.00404
CCO.N#CC(=C(/N)Sc1ccccc1N)/C(C#N)=C(\N)Sc1ccccc1N [U0126-EtOH] + Cc1nc(Nc2ncc(C(=O)Nc3c(C)cccc3Cl)s2)cc(N2CCN(CCO)CC2)n1	786-O	0.526

Could you now look at the following molecule, please?
Record for COCC(=O)NC/C=C/c1ccc2ncnc(Nc3ccc(Oc4ccc(C)nc4)c(C)c3)c2c1 + Cc1nc(Nc2ncc(C(=O)Nc3c(C)cccc3Cl)s2)cc(N2CCN(CCO)CC2)n1 under target or system 786-O: minimum viability across doses reported as 0.479

====

- Test system: TK-10
- Assay info: AUC of dose-response viability curve, drug alone (arbitrary (AUC of normalised viability)); higher = less growth inhibition
- Measurement parameters: treatment: drug alone; 5 days
Listing of recorded AUC of dose-response viability curve by entry.
Give your answer as a number; write no unit.

Below, each entry is followed by its recorded AUC of dose-response viability curve result.
Chemical smiles	AUC of dose-response viability curve
Cn1c(=O)n(-c2ccc(C(C)(C)C#N)cc2)c2c3cc(-c4cnc5ccccc5c4)ccc3ncc21	2.11
O=C(O)c1ccc(Nc2ncc3c(n2)-c2ccc(Cl)cc2C(c2c(F)cccc2F)=NC3)cc1	2.93
C[C@]1(O)C[C@@H](c2nc(-c3ccc4ccc(-c5ccccc5)nc4c3)c3c(N)nccn32)C1	2.79
O=C1NCCc2[nH]c(-c3ccncc3)cc21	2.88
O=c1[nH]c2ccc(Cl)cc2c(N[C@@H]2CN3CCC2CC3)c1-c1nc2ccccc2[nH]1	1.68

get_value(item= `O=c1cc(-c2cccc3c2Sc2ccccc2S3)oc(N2CCOCC2)c1` , readout=AUC of dose-response viability curve) returns 3.14

get_value(item= `NC(=O)Nc1cc(-c2cccc(F)c2)sc1C(=O)N[C@H]1CCCNC1` , readout=AUC of dose-response viability curve) returns 1.39

get_value(item= `O=C(NC1CCNCC1)c1n[nH]cc1NC(=O)c1c(Cl)cccc1Cl` , readout=AUC of dose-response viability curve) returns 2.32

====

- System: SN12C
- Assay info: minimum viability across doses, drug + dasatinib, relative to DMSO (fraction); higher = less growth inhibition
- Measurement parameters: treatment: drug + dasatinib (fixed dose, not stated); 5 days
Lab note: cut-off is 0.5. Strictly less in minimum viability across doses is T. Exactly 0.5 or more is F.

Molecule	Measurement target	Assigned class
CC(O)C(=O)O.CC(O)C(=O)O.CN1CCN(c2ccc3nc(-c4c(N)c5c(F)cccc5[nH]c4=O)[nH]c3c2)CC1 [Dovitinib Dilactic acid (TKI258 Dilactic acid)] + Cc1nc(Nc2ncc(C(=O)Nc3c(C)cccc3Cl)s2)cc(N2CCN(CCO)CC2)n1	SN12C	T
CC(C)(C)c1cc(C=C(C#N)C#N)cc(Br)c1O [AG-1024] + Cc1nc(Nc2ncc(C(=O)Nc3c(C)cccc3Cl)s2)cc(N2CCN(CCO)CC2)n1	SN12C	F
CCC[C@H](NC(=O)/C(C#N)=C/c1cccc(Br)n1)c1ccccc1 [WP1130] + Cc1nc(Nc2ncc(C(=O)Nc3c(C)cccc3Cl)s2)cc(N2CCN(CCO)CC2)n1	SN12C	T
Cn1cc(C2=C(c3cn(C4CCN(Cc5ccccn5)CC4)c4ccccc34)C(=O)NC2=O)c2ccccc21 + Cc1nc(Nc2ncc(C(=O)Nc3c(C)cccc3Cl)s2)cc(N2CCN(CCO)CC2)n1	SN12C	F

Problem: Is minimum viability across doses strictly under 0.5 for the entry Cc1nc(Nc2ncc(C(=O)Nc3c(C)cccc3Cl)s2)cc(N2CCN(CCO)CC2)n1 + Cc1nc(Nc2ncc(C(=O)Nc3c(C)cccc3Cl)s2)cc(N2CCN(CCO)CC2)n1 ?
Solution: T

Problem: Is minimum viability across doses strictly under 0.5 for the entry COc1cc2c(N3CCN(C(=O)Nc4ccc(OC(C)C)cc4)CC3)ncnc2cc1OCCCN1CCCCC1 [Tandutinib (MLN518)] + Cc1nc(Nc2ncc(C(=O)Nc3c(C)cccc3Cl)s2)cc(N2CCN(CCO)CC2)n1 ?
Solution: F

Problem: Is minimum viability across doses strictly under 0.5 for the entry CCCCCCCCCCCCc1ccc(S(=O)(=O)Nc2nncs2)cc1 [PHT-427] + Cc1nc(Nc2ncc(C(=O)Nc3c(C)cccc3Cl)s2)cc(N2CCN(CCO)CC2)n1 ?
Solution: F

Problem: Is minimum viability across doses strictly under 0.5 for the entry CN(C)CC[C@H](CSc1ccccc1)Nc1ccc(S(=O)(=O)NC(=O)c2ccc(N3CCN(Cc4ccccc4-c4ccc(Cl)cc4)CC3)cc2)cc1[N+](=O)[O-] [ABT-737] + Cc1nc(Nc2ncc(C(=O)Nc3c(C)cccc3Cl)s2)cc(N2CCN(CCO)CC2)n1 ?
Solution: F

Problem: Is minimum viability across doses strictly under 0.5 for the entry CCc1cnn2c(NCc3ccc[n+]([O-])c3)cc(N3CCCC[C@H]3CCO)nc12 + Cc1nc(Nc2ncc(C(=O)Nc3c(C)cccc3Cl)s2)cc(N2CCN(CCO)CC2)n1 ?
Solution: T

====

Listing of recorded minimum viability across doses by entry.
- Test system: A498
- Assay info: minimum viability across doses, drug alone, relative to DMSO (fraction); higher = less growth inhibition
- Measurement parameters: treatment: drug alone; 5 days
Give your answer as a number; write no unit.

Compound	minimum viability across doses
O=C(NC1CCNCC1)c1n[nH]cc1NC(=O)c1c(Cl)cccc1Cl [AT7519]	0.00986
CNC(=O)c1ccc(C)c(-n2c(C)cc(OCc3ccc(F)cc3F)c(Br)c2=O)c1	1.12
CNC(=O)c1cc(Oc2ccc(NC(=O)Nc3ccc(Cl)c(C(F)(F)F)c3)c(F)c2)ccn1 [Regorafenib (BAY 73-4506)]	0.883

Could you now look at the following compound, please?
Record for CC[C@@H]1C(=O)N(C)c2cnc(Nc3ccc(C(=O)NC4CCN(C)CC4)cc3OC)nc2N1C1CCCC1 [BI 2536] under target or system A498: minimum viability across doses reported as 0.0641

====

- Tested on: CAKI-1
- Assay info: minimum viability across doses, drug + dasatinib, relative to DMSO (fraction); higher = less growth inhibition
- Measurement parameters: treatment: drug + dasatinib (fixed dose, not stated); 5 days
Quantity name: minimum viability across doses
Give your answer as a number; write no unit.

Below, each entry is followed by its recorded minimum viability across doses result.
Compound	Measurement target	Observed
CNC(=O)c1cc(Oc2ccc(NC(=O)Nc3ccc(Cl)c(C(F)(F)F)c3)cc2)ccn1.Cc1ccc(S(=O)(=O)O)cc1 [Sorafenib (Nexavar)] + Cc1nc(Nc2ncc(C(=O)Nc3c(C)cccc3Cl)s2)cc(N2CCN(CCO)CC2)n1	CAKI-1	0.118
COc1cc(Nc2ncc(F)c(Nc3ccc4c(n3)NC(=O)C(C)(C)O4)n2)cc(OC)c1OC.O=S(=O)(O)c1ccccc1 [R406] + Cc1nc(Nc2ncc(C(=O)Nc3c(C)cccc3Cl)s2)cc(N2CCN(CCO)CC2)n1	CAKI-1	0.0338
C[C@@H](Oc1cc(-c2cnn(C3CCNCC3)c2)cnc1N)c1c(Cl)ccc(F)c1Cl + Cc1nc(Nc2ncc(C(=O)Nc3c(C)cccc3Cl)s2)cc(N2CCN(CCO)CC2)n1	CAKI-1	0.0151

Could you now look at the following compound, please?
get_value(item= COc1cc2c(Oc3ccc(NC(=O)C4(C(=O)Nc5ccc(F)cc5)CC4)cc3F)ccnc2cc1OCCCN1CCOCC1 + Cc1nc(Nc2ncc(C(=O)Nc3c(C)cccc3Cl)s2)cc(N2CCN(CCO)CC2)n1 , readout=minimum viability across doses) returns 0.00437
